Known viability at 48 h, 10 µM of a selection of molecules
Protocol notes: in vitro
Parameters: species or system HB2, CCD841
Test settings: human, hek293 cells
Quantity: viability at 48 h, 10 µM (%)

{"Molecule": "C=CC(=O)N1CCN(C(=O)Cc2c(C)noc2C)CC1", "Quantity": "viability at 48 h, 10 µM", "Unit abbrev": "%", "Measured value": 91.3}
{"Molecule": "O=C(CCl)N1CCN(S(=O)(=O)c2ccc3ccccc3c2)CC1", "Quantity": "viability at 48 h, 10 µM", "Unit abbrev": "%", "Measured value": 46.3}
{"Molecule": "Cc1ccc(NC(=O)CCl)cc1", "Quantity": "viability at 48 h, 10 µM", "Unit abbrev": "%", "Measured value": 8.7}
{"Molecule": "O=C(CCl)NC(=O)c1ccc[nH]1", "Quantity": "viability at 48 h, 10 µM", "Unit abbrev": "%", "Measured value": 149}
{"Molecule": "C=CC(=O)N1CCC(n2nnc3c2CCCC3)CC1", "Quantity": "viability at 48 h, 10 µM", "Unit abbrev": "%", "Measured value": 91.5}
{"Molecule": "C=CC(=O)N1CCC2(CC1)CNC(=O)C2", "Quantity": "viability at 48 h, 10 µM", "Unit abbrev": "%", "Measured value": 95.1}
{"Molecule": "C=CC(=O)N1CCCC(c2nncn2C2CC2)C1 (centres unmarked)", "Quantity": "viability at 48 h, 10 µM", "Unit abbrev": "%", "Measured value": 113}
{"Molecule": "Cc1ccccc1C(=O)NC1CCN(C(=O)CCl)CC1", "Quantity": "viability at 48 h, 10 µM", "Unit abbrev": "%", "Measured value": 58.4}
{"Molecule": "O=C(CCl)Nc1nc(-c2ccc(F)c(F)c2)cs1", "Quantity": "viability at 48 h, 10 µM", "Unit abbrev": "%", "Measured value": 0.9}
{"Molecule": "COc1ccc(C2CCCN2C(=O)CCl)cc1 (centres unmarked)", "Quantity": "viability at 48 h, 10 µM", "Unit abbrev": "%", "Measured value": 6.4}
{"Molecule": "Cc1cc(SC#N)ccc1NC(=O)CCl", "Quantity": "viability at 48 h, 10 µM", "Unit abbrev": "%", "Measured value": 27.8}
